Where do the numbers come from? From the RNAGym collection of RNA variant scans (doi:10.7554/elife.90254).

B1: OR4K15 (parent)
chain: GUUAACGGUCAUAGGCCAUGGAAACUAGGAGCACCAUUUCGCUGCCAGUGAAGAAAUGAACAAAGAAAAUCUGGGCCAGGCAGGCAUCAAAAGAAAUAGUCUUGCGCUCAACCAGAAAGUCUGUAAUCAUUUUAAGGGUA

# Variants of: B1
# ASSAY_SUMMARY: self-cleavage, relative activity (ratio to wild type); higher = more cleavage; in vitro, sequencing; the parent is a self-cleaving ribozyme
The reader will find reported self-cleavage values listed item by item below.
Please respond with just the number, no unit label.

Q: Check the records and state self-cleavage for `A116G`
Ans: 0.47

Q: Check the records and state self-cleavage for A33U A134G
Ans: 1.2

Q: Check the records and state self-cleavage for U9A U108A
Ans: 0

Q: Check the records and state self-cleavage for A36G A96G
Ans: 1.13

Q: Check the records and state self-cleavage for U57A A91G
Ans: 0.54

Q: Check the records and state self-cleavage for A63U G99U
Ans: 1.03

Q: Check the records and state self-cleavage for A30G A82G
Ans: 0.6

Q: Check the records and state self-cleavage for U39A U72G
Ans: 0.3

Q: Check the records and state self-cleavage for A116G A117U
Ans: 0.44

Q: Check the records and state self-cleavage for A98U U102C
Ans: 2.78

Next:
Q: Check the records and state self-cleavage for A27G A51G
Ans: 1.3

Q: Check the records and state self-cleavage for A82G U108A
Ans: 0.04
